Where do the numbers come from? From patent US20180079802A1.

Target: CHIKV strain NI 64 IbH 35 (West African genotype) (Chikungunya virus strain NI 64 IbH 35)
Test: cell-based or functional assay
# Lookup of reported Neutralization (FRNT), EC50 keyed by entry
Kindly provide the numeric value in ng/mL only, without the unit symbol.

# example entries with known answers
5O14 (antibody, V domains shown) VH: QVQLVQSGGRVVQAGRSLRLSCAASGFTFSMYGVHWVRQAPGKGLEWVAVIWNDGSKEYYGDSVKGRFTISRDNSRNTLYLQMNSLRVDDTAVYFCARDGIPDPERGDYGGLDYWGQGTLVTVSS VL: QTVVTQFPSSPFASVGDGVTITCRARQSISSYVNWYQQKPGKAPKLLIYATSSLQSGVPSRFSGSGYGTDFTLTISGLQPEDFATYYCQQSYSFPRTFGQGTKVEIK	6.7
4J21 (antibody, V domains shown) VH: QVQLVQSGSELKKPGASVKVSCKASGYSFTSYSINWVRQAPGQGPEWMGWIDTNTGNPTYAQDFAGRFVFSLDTSVTTAYLQISSLKAGDTAVYYCATYYVDLWGSYRQDYYGMDVWGHGTLVTVSS VL: QSVVTQPPSVSGTPGQGVTISCSGGSSNIGSNPVNWYQMVPGTAPKLLLYTNNQRPSGVPDRFSGSKSGTSASLAINGLQSEDEADYYCAVWDDSLSGRWVFGGGTKLTVL	5.2

In the following, a different binder is considered.
# Neutralization (FRNT), EC50 lookup, item 2B4 (antibody, V domains shown) VH: QVQLVQSGSELKKPGASVKVSCKASGYSFTSYSINWVRQAPGQGPEWMGWIDTNTGNPTYAQDFAGRFVFSLDTSVTTAYLQISSLKAGDTAVYYCATYYVDLWGSYRQDYYGMDVWGH VL: QSVLTQPPSASGTPGQRVTISCSGGSSNIGSNPVNWYQMVPGTAPKLLLYTNNQRPSGVPDRFSGSKSGTSASLAINGLQSEDEADYYCAVWDDSLSGRWVFGGGTKVTVL 3.2
